Tested on: HepG2
test-details: cytotoxicity call (relative viability < 0.9)
particulars: 10 µM
The whole screen tested about 39,000 compounds, of which about 3,300 (8.5%) were called active. The full list was thinned out, with actives kept by preference.
Log the outcome using a class from yes for active, no for inactive

See these solved cases before continuing.
smiles-notation | category
C[C@@H]1CN([C@H](C)CO)C(=O)c2cc(NS(C)(=O)=O)ccc2O[C@@H](C)CCCCO[C@H]1CN(C)Cc1ccc(Cl)c(Cl)c1 | yes
C[C@H](CO)N1C[C@H](C)[C@@H](CN(C)S(=O)(=O)c2cn(C)cn2)Oc2ncc(C3=CCCC3)cc2C1=O | no
C[C@@H]1CCCCO[C@H](CN(C)Cc2ccc(Cl)c(Cl)c2)[C@H](C)CN([C@@H](C)CO)C(=O)c2cc(NS(C)(=O)=O)ccc2O1 | yes
O=C(C[C@H]1CC[C@@H]2[C@H](COC[C@H](O)CN2CC2CCOCC2)O1)N1CCOCC1 | no
C[C@@H]1CCCCO[C@H](CN(C)Cc2ccc(Cl)c(Cl)c2)[C@@H](C)CN([C@H](C)CO)C(=O)c2cc(NS(C)(=O)=O)ccc2O1 | no
C[C@@H]1CN([C@H](C)CO)C(=O)c2cccc(NC(=O)NC3CCCCC3)c2O[C@@H]1CN(C)C(=O)Nc1ccc(C(F)(F)F)cc1 | no

# lookup: test call for "C[C@@H]1CCCCO[C@@H](CN(C)Cc2ccc(Cl)c(Cl)c2)[C@H](C)CN([C@@H](C)CO)C(=O)c2cc(NS(C)(=O)=O)ccc2O1"
no
